# Target Or System: Protein Mdm4 (Homo sapiens) + E3 ubiquitin-protein ligase Mdm2 (Homo sapiens) (UniProt O15151+Q00987)
# Sequence (O15151 whole entry, looked up): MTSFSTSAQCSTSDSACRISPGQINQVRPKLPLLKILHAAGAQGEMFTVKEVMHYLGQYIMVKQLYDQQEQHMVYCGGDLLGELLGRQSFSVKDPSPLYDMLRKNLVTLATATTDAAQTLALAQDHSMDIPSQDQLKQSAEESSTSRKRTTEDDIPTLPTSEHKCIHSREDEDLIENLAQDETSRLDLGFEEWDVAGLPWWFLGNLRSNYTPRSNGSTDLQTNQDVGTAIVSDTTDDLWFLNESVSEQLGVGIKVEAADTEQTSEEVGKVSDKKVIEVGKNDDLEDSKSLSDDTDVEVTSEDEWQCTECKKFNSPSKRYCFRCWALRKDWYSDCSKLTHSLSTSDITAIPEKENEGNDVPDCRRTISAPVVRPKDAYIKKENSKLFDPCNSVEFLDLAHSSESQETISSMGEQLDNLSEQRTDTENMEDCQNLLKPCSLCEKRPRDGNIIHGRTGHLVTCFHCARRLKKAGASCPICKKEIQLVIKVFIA
# Sequence (Q00987 whole entry, looked up): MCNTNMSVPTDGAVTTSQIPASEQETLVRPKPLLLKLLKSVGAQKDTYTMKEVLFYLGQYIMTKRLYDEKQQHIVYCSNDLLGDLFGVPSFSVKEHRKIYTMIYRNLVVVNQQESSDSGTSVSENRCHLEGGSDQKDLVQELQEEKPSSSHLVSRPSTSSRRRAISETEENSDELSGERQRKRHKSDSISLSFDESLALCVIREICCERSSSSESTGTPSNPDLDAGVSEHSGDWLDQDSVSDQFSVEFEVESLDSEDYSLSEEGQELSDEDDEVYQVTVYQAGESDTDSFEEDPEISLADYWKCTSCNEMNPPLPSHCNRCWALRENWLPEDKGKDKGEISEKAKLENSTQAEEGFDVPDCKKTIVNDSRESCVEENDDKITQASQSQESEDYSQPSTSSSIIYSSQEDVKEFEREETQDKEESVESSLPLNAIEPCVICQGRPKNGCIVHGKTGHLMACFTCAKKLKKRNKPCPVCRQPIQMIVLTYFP
# Assay Text: inhibitors of human Mdm2-MdmX association, primary screen, cell-based, luminescence, split luciferase, SaOS-2, uHTS (AID 485346)
# Measurement Setup: SaOS-2 split-luciferase Mdm2/MdmX complementation, at 8 µM, hits give high values
Out of some 330,000 compounds screened, about 10,000 (3%) were called active. The entries come from a sample that favours actives as a whole.
inhibition values, listed per item

Observe how each entry below is paired with its result.
- Compound: "Cc1ccc(C)c(NS(=O)(=O)c2c(C)[nH]c(C)c2C(=O)N2CCCCC2)c1"
  Property: "inhibition"
  Result: "-0.656% (inactive)"
- Compound: "CCOc1cc(N2CCOCC2)c(OCC)cc1NC(=O)c1cc(C)nc2ccccc12"
  Property: "inhibition"
  Result: "-16.5% (inactive)"
- Compound: "O=C(N/N=C/c1cccnc1)c1ccc(NC(=O)c2ccc(F)cc2)cc1"
  Property: "inhibition"
  Result: "-2.66% (inactive)"
- Compound: "O=C(NN=C1CCC(=NNC(=O)c2cccnc2)CC1)c1cccnc1"
  Property: "inhibition"
  Result: "-0.152% (inactive)"
- Compound: "Cc1csc(NC(=O)C2CCN(S(=O)(=O)c3ccccc3)CC2)n1"
  Property: "inhibition"
  Result: "-1.69% (inactive)"

So, C=C(C)c1cccc(C(C)(C)NC(=O)NCCN(CC)CC)c1 ? Its inhibition was 14.6% (inactive)

For Cc1ccc(-c2ccc(=O)n(CC(=O)NCCCN3CCCCC3)n2)cc1 the compound record lists inhibition as 2.15% (inactive)

For O=C(NNc1c2ccccc2nc2ccccc12)c1cc2ccccc2cc1O the compound record lists inhibition as 35.2% (inactive)

###

# Target Or System: Protein Mdm4 (Homo sapiens) + E3 ubiquitin-protein ligase Mdm2 (Homo sapiens) (UniProt O15151+Q00987)
# Assay Text: inhibitors of human Mdm2-MdmX association, primary screen, cell-based, luminescence, split luciferase, SaOS-2, uHTS (AID 485346)
# Measurement Setup: SaOS-2 split-luciferase Mdm2/MdmX complementation, at 8 µM
About 10,000 (3%) of roughly 330,000 compounds were called active.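 Rule for the calls: active = inhibition of at least 50% at 8 µM in the primary screen; inactive = the rest.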 This is one part of a sample in which actives are shown more often than they occur.
The reply should name one outcome from class 1 (active), class 0 (inactive)

- Molecule: "Cn1cc([N+](=O)[O-])c(C(=O)Nc2ccc3c(c2)OCCO3)n1"
  Class: "class 0"
- Molecule: "CCN(CC)CCN1C(=O)C2C(C(=O)Nc3ccc(Br)cc3)C3C=CC2(O3)C1C(=O)NC1CCCCC1 (centres undefined)"
  Class: "class 0"
- Molecule: "COc1ccccc1C1=CC(=O)C[C@H](c2ccc(F)cc2)C1"
  Class: "class 0"
- Molecule: "COc1ccc(C(=O)ON=C2c3ccccc3-c3ccccc32)cc1OC"
  Class: "class 0"
- Molecule: "O=C(CSc1cccc2cccnc12)N/N=C/c1cccnc1"
  Class: "class 1"
- Molecule: "O=c1c2cc(Br)ccc2nc(-c2cccc(Cl)c2)n1O"
  Class: "class 0"

Continue with the molecule presented below.
What outcome does the record of this test show for CC(C)(C)C(=O)NC(NC(=S)Nc1ccc(S(N)(=O)=O)cc1)C(Cl)(Cl)Cl (centres undefined) ? class 0

###

# Target Or System: Protein Mdm4 (Homo sapiens) + E3 ubiquitin-protein ligase Mdm2 (Homo sapiens) (UniProt O15151+Q00987)
# Assay Text: inhibitors of human Mdm2-MdmX association, primary screen, cell-based, luminescence, split luciferase, SaOS-2, uHTS (AID 485346)
# Measurement Setup: SaOS-2 split-luciferase Mdm2/MdmX complementation, at 8 µM
Hit rate of the full screen: of about 330,000 compounds, about 10,000 (3%) were called active.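 How the source made its calls: active means inhibition of at least 50% at 8 µM in the primary screen; inactive means the rest.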 For the sample, actives were picked, then their nearest neighbours and some compounds at random.
Select the correct class. Options are 1 (yes) (active), 0 (no) (inactive) and nothing else.

A selection of reference data follows.
- Molecular String: "COc1ccc2sc(-c3ccccc3OC)c(-c3ccc(OCCN4CCCC4)cc3)c2c1"
  Class: "1 (yes)"
- Molecular String: "COc1cc(OC)cc(-c2sc3ccc(OC)cc3c2-c2ccc3cc[nH]c3c2)c1"
  Class: "0 (no)"
- Molecular String: "Cc1ccc(S(=O)(=O)Oc2ccc(/C=N/NC(=O)c3ccncc3)cc2)cc1"
  Class: "0 (no)"
- Molecular String: "COc1ccc(-c2sc3ccccc3c2-c2ccc(OCCN3CCOCC3)cc2)cc1"
  Class: "0 (no)"
- Molecular String: "O=C(Nc1cccc2c1CCCC2)c1ccc(F)cc1"
  Class: "0 (no)"

I'd appreciate the recorded outcome for COc1ccccc1-c1sc2ccccc2c1-c1ccc(Br)nc1 from this test. 0 (no)

###

# Target Or System: Protein Mdm4 (Homo sapiens) + E3 ubiquitin-protein ligase Mdm2 (Homo sapiens) (UniProt O15151+Q00987)
# Assay Text: inhibitors of human Mdm2-MdmX association, primary screen, cell-based, luminescence, split luciferase, SaOS-2, uHTS (AID 485346)
# Measurement Setup: SaOS-2 split-luciferase Mdm2/MdmX complementation, at 8 µM, hits give high values
The campaign covered roughly 330,000 compounds. About 10,000 (3%) were called active. The sample as a whole holds a higher share of actives than the screen did.
Property: inhibition (%)
Field: numeric (%). Do not append units.

Answered cases to consult:
- Compound: "CC1CCCN(C(=O)CN2C(=O)c3ccccc3S2(=O)=O)C1 (stereo unspecified)"
  Property: "inhibition"
  Display Unit: "%"
  Quantitative Result: 3.88
- Compound: "COC(=O)c1ccc(C)c(NC(=O)Cn2c(C)csc2=O)c1"
  Property: "inhibition"
  Display Unit: "%"
  Quantitative Result: 26.8
- Compound: "COc1ccc(CN2CCN(C(=O)c3cc(C4CC4)nn3-c3ccccc3)CC2)cc1F"
  Property: "inhibition"
  Display Unit: "%"
  Quantitative Result: 12.7
- Compound: "CN(C)c1ccc(C=NCCc2ccc(S(N)(=O)=O)cc2)cc1"
  Property: "inhibition"
  Display Unit: "%"
  Quantitative Result: 5.89
- Compound: "Cc1cn(C2OC[C@@H](O)[C@@H]2CO)c(=O)[nH]c1=O (stereo partly specified)"
  Property: "inhibition"
  Display Unit: "%"
  Quantitative Result: -25.3

Sample CN1C(=O)C2(OCCCO2)c2cc(Cl)ccc21 ; inhibition observed: 2.45

###

Measured inhibition, listed per entry for reference.
# Target Or System: Protein Mdm4 (Homo sapiens) + E3 ubiquitin-protein ligase Mdm2 (Homo sapiens) (UniProt O15151+Q00987)
# Assay Text: inhibitors of human Mdm2-MdmX association, primary screen, cell-based, luminescence, split luciferase, SaOS-2, uHTS (AID 485346)
# Measurement Setup: SaOS-2 split-luciferase Mdm2/MdmX complementation, at 8 µM, hits give high values
About 10,000 (3%) of roughly 330,000 compounds were called active. The sample as a whole holds a higher share of actives than the screen did.
Respond with the bare value in %.

Here's what some known entries look like.
- Compound: "O=C(CNS(=O)(=O)c1ccc2c(c1)OCCCO2)N1CCN(c2ccc(F)cc2)CC1"
  Quantitative Result: 7.54
- Compound: "CCN(CC(=O)NC(C)C)C(=O)c1cc(S(=O)(=O)N2CCCCC2)ccc1N1CCCCC1"
  Quantitative Result: 2.7
- Compound: "O=C(CCCCCn1c(=S)[nH]c2cc3c(cc2c1=O)OCO3)N1CCN(c2ccc(F)cc2)CC1"
  Quantitative Result: 53.5
- Compound: "CC(C)[C@@H]1COC(c2cccc(C3=N[C@H](C(C)C)CO3)c2)=N1"
  Quantitative Result: -13.9
- Compound: "O=C(CCn1c(=S)[nH]c2cc3c(cc2c1=O)OCO3)NCc1ccc(Cl)cc1"
  Quantitative Result: 56.3

Briefly, inhibition measured for COc1ccc2nc(NC(=O)NC3CCCCC3)sc2c1 : -142

Per the records, this compound ( CN(CCc1ccccn1)C(=O)CCC1CCCN(Cc2ccccc2OC(F)F)C1 (stereo unspecified) ) has inhibition equal to -29.3

Summary for this compound, Cc1ccc(C)c(N2CCN(C(=O)CCCn3c(=O)c4cccn4c4cccnc43)CC2)c1 : inhibition is 1.5

###

# Target Or System: Protein Mdm4 (Homo sapiens) + E3 ubiquitin-protein ligase Mdm2 (Homo sapiens) (UniProt O15151+Q00987)
# Assay Text: inhibitors of human Mdm2-MdmX association, primary screen, cell-based, luminescence, split luciferase, SaOS-2, uHTS (AID 485346)
# Measurement Setup: SaOS-2 split-luciferase Mdm2/MdmX complementation, at 8 µM
The whole screen tested about 330,000 compounds, of which about 10,000 (3%) were called active.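 Rule for the calls: active = inhibition of at least 50% at 8 µM in the primary screen; inactive = the rest.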 This is one part of a sample in which actives are shown more often than they occur.
Pick one: active, inactive

- Compound: "O=C(NC1(C(F)(F)F)NC(=O)N(C2CCCCC2)C1=O)c1ccco1 (configuration not stated)"
  Class: "inactive"
- Compound: "CCN(c1ccccc1)S(=O)(=O)c1ccc(C(=O)Nc2nccs2)cc1"
  Class: "inactive"
- Compound: "NC(=O)c1c(NC(=O)CSc2nnc(-c3ccco3)n2N)sc2c1CCCC2"
  Class: "inactive"

Tell me the assay call for COc1cccc(OC)c1C(=O)Nc1sc2c(c1C(N)=O)CCCC2 please. inactive
